Taken from the supplement of paper PMC10065799.

systemUnderTest: Grb2 SH2 (UniProt P62993)
Sequence (P62993 whole entry, looked up, the tested form may be a part): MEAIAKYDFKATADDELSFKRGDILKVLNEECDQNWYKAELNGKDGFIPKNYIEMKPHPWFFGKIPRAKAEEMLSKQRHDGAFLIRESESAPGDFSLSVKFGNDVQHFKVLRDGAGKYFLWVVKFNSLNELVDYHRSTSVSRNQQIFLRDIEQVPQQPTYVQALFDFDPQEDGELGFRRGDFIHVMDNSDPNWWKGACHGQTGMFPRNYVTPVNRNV
procedureSummary: SH2 binding enrichment of the phosphorylated peptide, bacterial display (enrichment ratio); higher = better substrate or ligand; peptides without Tyr show the background;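 further: peptide library displayed on the E. coli surface as eCPX fusions, selected cells deep-sequenced, score is each peptide's frequency after selection divided by its frequency in the input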
Short version: SH2 binding enrichment at least 0.9 is Criterion met, less is Criterion not met.

Solved cases (8 shown):
| sequenceData | systemUnderTest | class |
| --- | --- | --- |
| SSNLFYRWLTA [CNGA3_Y169_YF] | Grb2 SH2 (UniProt P62993) | Criterion not met |
| RKGGSYSQAAS [HLA-A_Y344_T345S] | Grb2 SH2 (UniProt P62993) | Criterion met |
| WQQQSYLYSGI [CTNNB1_Y30_D32Y] | Grb2 SH2 (UniProt P62993) | Criterion met |
| DTVRIYDDDFF [UBA1_Y560_E557V] | Grb2 SH2 (UniProt P62993) | Criterion met |
| INQGPYENRSV [ATP6V1B1_Y462] | Grb2 SH2 (UniProt P62993) | Criterion met |
| TMKSRYMELFD [BBS2_Y644_YF] | Grb2 SH2 (UniProt P62993) | Criterion met |
| VFLGAYDHFLP [SLC22A5_Y486_R488H_YF] | Grb2 SH2 (UniProt P62993) | Criterion not met |
| EDASEYFENFI [PARP4_Y214_F215Y_YF] | Grb2 SH2 (UniProt P62993) | Criterion not met |

## Task hey, is SH2 binding enrichment for this one >= 0.9? GRSTFYWPSPR [GAGE12J_Y10_R13S_YF]
## Result Criterion met

## Task hey, is SH2 binding enrichment for this one >= 0.9? ADIETYLLEKS [MYH7_Y266]
## Result Criterion not met
